Hello, the source for this data is patent US8227604B2, in case you need it.

Biological target: 5HT2C receptor (Homo sapiens, UniProt P28335)
Construct: expressed in transfected cells
Sequence (P28335 33-458): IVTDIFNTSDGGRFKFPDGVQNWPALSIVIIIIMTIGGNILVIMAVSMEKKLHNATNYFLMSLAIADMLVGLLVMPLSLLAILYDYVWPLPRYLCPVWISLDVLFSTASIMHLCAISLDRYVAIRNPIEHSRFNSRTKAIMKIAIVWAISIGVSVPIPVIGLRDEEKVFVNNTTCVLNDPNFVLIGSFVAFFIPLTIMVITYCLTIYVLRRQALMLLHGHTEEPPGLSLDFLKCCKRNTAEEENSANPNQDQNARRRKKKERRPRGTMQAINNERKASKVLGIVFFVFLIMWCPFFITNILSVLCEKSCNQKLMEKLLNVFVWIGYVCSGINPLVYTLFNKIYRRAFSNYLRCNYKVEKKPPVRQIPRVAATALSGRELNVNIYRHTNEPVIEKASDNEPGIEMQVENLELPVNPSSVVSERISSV
Test: Binding affinity at cloned human 5HT2C receptor, [3H]Mesulergine
REPORTED METRIC: Ki (nM)

I = CCCN(CCCCN1CCN(c2cccc(Cl)c2Cl)CC1)C1CCc2ccc(O)cc2C1 (stereo not shown) [Compound 19a]
II = C#CCN(CCCCN1CCN(c2ccccc2)CC1)C1CCc2ccc(O)cc2C1 (stereo not shown) [Compound 12b]
III = C#CCN(CCCCN1CCN(c2cccc(Cl)c2Cl)CC1)C1CCc2ccc(O)cc2C1 (stereo not shown) [Compound 19b]
stdin: I would appreciate it if you could sort these 3 compounds by Ki, starting from the smallest number. Arrange the labels as the request states and list them.
stdout: III, I, II
(III: 264 nM, I: 639 nM, II: 3220 nM)

* * *

target: D2 receptor (Homo sapiens); assay: Agonist potency by [3H]thymidine incorporation (mitogenesis), D2; settings: [3H]thymidine incorporation
REPORTED METRIC: EC50 (nM)

The examples below pair each entry with its known result.
- C#CCN(CCN1CCN(c2ccccc2)CC1)C1CCc2ccc(O)cc2C1 (centres unmarked) [Compound 12a]: 6.18
- CCCN(CCCCN1CCN(c2cccc(Cl)c2Cl)CC1)C1CCc2ccc(O)cc2C1 (centres unmarked) [Compound 19a]: 8.31

1 = N#CCCCN(CCCCN1CCN(c2ccccc2)CC1)C1CCc2ccc(O)cc2C1 (centres unmarked)
2 = O=C(NCCCCN(CCCCN1CCN(c2ccccc2)CC1)C1CCc2ccc(O)cc2C1)c1ccccc1 (centres unmarked) [Compound 10a]
stdin: Could you determine which record has the numerically smaller EC50? Candidates: 1 and 2 Answer = label.
stdout: 1

* * *

Biological target: 5HT1A receptor (Homo sapiens)
Construct: expressed in transfected cells; host or cells: HA7 cells
Sequence (P08908 1-422): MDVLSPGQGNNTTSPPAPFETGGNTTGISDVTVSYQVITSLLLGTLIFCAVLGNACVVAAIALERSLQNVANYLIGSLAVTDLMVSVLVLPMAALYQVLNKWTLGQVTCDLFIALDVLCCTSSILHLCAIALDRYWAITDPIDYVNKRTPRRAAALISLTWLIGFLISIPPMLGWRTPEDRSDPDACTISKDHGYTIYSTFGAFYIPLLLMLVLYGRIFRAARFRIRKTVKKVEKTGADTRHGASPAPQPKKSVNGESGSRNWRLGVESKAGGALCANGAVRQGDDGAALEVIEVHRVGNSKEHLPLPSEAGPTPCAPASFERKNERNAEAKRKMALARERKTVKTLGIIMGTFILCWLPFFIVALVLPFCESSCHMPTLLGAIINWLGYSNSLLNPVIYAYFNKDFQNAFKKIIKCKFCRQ
Test: Binding affinity at cloned human 5HT1A receptor, [3H]8-OH-DPAT (HA7 cells)
REPORTED METRIC: Ki (nM)

* CCCN(CCCCN1CCN(c2ccccc2)CC1)C1CCc2ccc(O)cc2C1 (stereo not shown) [Compound 15b] | 18.5

P = O=C(NCCCCN(CCCCN1CCN(c2ccccc2)CC1)C1CCc2ccc(O)cc2C1)c1ccccc1 (stereo not shown) [Compound 10a]
Q = CCCN(CCN1CCN(c2ccccc2)CC1)C1CCc2ccc(O)cc2C1 (stereo not shown) [Compound 15a]
R = N#CCCCN(CCCCN1CCN(c2ccccc2)CC1)C1CCc2ccc(O)cc2C1 (stereo not shown) [Compound 8]
stdin: // smallest Ki at index 0, largest at the end As an answer, provide the labels arranged in the order called for.
stdout: Q, R, P
(Q: 21.4 nM, R: 88.3 nM, P: 171 nM)

1 = O=C(NCCN(CCCCN1CCN(c2ccccc2)CC1)C1CCc2ccc(O)cc2C1)c1ccccc1 (stereo not shown) [Compound 10b]
2 = CCCN(CCCCN1CCN(c2cccc(Cl)c2Cl)CC1)C1CCc2ccc(O)cc2C1 (stereo not shown) [Compound 19a]
3 = C#CCN(CCCCN1CCN(c2cccc(Cl)c2Cl)CC1)C1CCc2ccc(O)cc2C1 (stereo not shown) [Compound 19b]
4 = C#CCN(CCCCN1CCN(c2ccccc2)CC1)C1CCc2ccc(O)cc2C1 (stereo not shown) [Compound 12b]
stdin: Arrange the 4 compounds from largest to smallest Ki. Returns: the labels arranged in the requested order.
stdout: 1, 3, 2, 4
(1: 164 nM, 3: 64.4 nM, 2: 40.6 nM, 4: 15.2 nM)

* * *

pKi: −log10 of the molar value.
What follows is a collection of pKi values obtained with D2L receptor (Homo sapiens, UniProt P14416).
Sequence (P14416 whole entry): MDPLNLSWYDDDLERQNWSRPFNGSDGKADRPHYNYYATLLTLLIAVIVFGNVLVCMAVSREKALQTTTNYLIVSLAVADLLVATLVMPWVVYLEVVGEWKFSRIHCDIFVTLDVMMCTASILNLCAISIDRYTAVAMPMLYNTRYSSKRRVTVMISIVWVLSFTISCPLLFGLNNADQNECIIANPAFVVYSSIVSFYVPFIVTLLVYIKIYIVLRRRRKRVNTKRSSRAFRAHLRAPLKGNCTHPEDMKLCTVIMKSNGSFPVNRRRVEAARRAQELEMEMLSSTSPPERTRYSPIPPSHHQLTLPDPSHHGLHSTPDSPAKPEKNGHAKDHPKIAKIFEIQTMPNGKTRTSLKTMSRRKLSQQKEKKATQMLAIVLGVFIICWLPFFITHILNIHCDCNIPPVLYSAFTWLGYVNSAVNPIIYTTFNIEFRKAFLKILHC
REPORTED METRIC: pKi

* O=C(NCCCCN(CCCCN1CCN(c2ccccc2)CC1)C1CCc2ccc(O)cc2C1)c1ccccc1 (stereo not drawn) [Compound 10a] | 6.11

1 = CCCN(CCN1CCN(c2ccccc2)CC1)C1CCc2nc(N)ncc2C1 (stereo not drawn)
2 = CCCN(CCCCN1CCN(c2ccccc2)CC1)C1CCc2ccc(O)cc2C1 (stereo not drawn) [Compound 15b]
stdin: Sort 1 and 2 by pKi descending and give the first. API: response body contains the label of the selected item.
stdout: 2
(2: 6.94, 1: 5.95)

* * *

Collected Ki values appear next to each entry.
biological target: 5HT2A receptor (Homo sapiens); construct: expressed in transfected cells; assay: Binding affinity at cloned human 5HT2A receptor, [3H]Ketanserin
Sequence (P28223 whole entry): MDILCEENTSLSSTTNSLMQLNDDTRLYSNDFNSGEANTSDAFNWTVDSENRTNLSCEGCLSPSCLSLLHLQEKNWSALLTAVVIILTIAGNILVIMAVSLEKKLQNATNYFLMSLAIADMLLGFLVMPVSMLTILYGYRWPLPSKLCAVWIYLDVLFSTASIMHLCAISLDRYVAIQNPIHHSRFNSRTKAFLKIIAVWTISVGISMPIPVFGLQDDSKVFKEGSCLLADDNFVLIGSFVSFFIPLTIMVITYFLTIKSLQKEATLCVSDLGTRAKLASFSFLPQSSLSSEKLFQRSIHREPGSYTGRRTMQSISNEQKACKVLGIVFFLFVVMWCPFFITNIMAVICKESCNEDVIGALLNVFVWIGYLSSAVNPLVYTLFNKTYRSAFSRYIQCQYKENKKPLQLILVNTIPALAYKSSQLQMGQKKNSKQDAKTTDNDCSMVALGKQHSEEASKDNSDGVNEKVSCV
Write the answer as a number in nM, unit excluded.

• C#CCN(CCCCN1CCN(c2cccc(Cl)c2Cl)CC1)C1CCc2ccc(O)cc2C1 (stereo not drawn) [Compound 19b] = 160

stdin: Look at this molecule and give its reported Ki. C#CCN(CCN1CCN(c2ccccc2)CC1)C1CCc2ccc(O)cc2C1 (stereo not drawn) [Compound 12a]
stdout: 161

* * *

target: D2 receptor (Homo sapiens); construct: expressed in transfected cells; assay: Binding affinity at cloned human D2 receptor, [3H]YM-09151-2 (CHOp-D2 cells)
REPORTED METRIC: Ki (nM)

• C#CCN(CCN1CCN(c2ccccc2)CC1)C1CCc2ccc(O)cc2C1 (stereo not drawn) [Compound 12a] = 65.5

A = C#CCN(CCCCN1CCN(c2cccc(Cl)c2Cl)CC1)C1CCc2ccc(O)cc2C1 (stereo not drawn) [Compound 19b]
B = CCCN(CCN1CCN(c2ccccc2)CC1)C1CCc2ccc(O)cc2C1 (stereo not drawn) [Compound 15a]
stdin: Returns: the argument ( A or B ) having the larger Ki. Answer by stating the label of the chosen item.
stdout: B
(B: 75.5 nM, A: 28.1 nM)

* * *

molecular target: UniProt:P35462; assay: Agonist potency by [3H]thymidine incorporation (mitogenesis), D3; conditions: [3H]thymidine incorporation
REPORTED METRIC: EC50 (nM)

Solved cases below.
• O=C(NCCCCN(CCCCN1CCN(c2ccccc2)CC1)C1CCc2ccc(O)cc2C1)c1ccccc1 (stereo not drawn) [Compound 10a] = 110
• C#CCN(CCN1CCN(c2ccccc2)CC1)C1CCc2ccc(O)cc2C1 (stereo not drawn) [Compound 12a] = 1.25

1 = C#CCN(CCCCN1CCN(c2cccc(Cl)c2Cl)CC1)C1CCc2ccc(O)cc2C1 (stereo not drawn) [Compound 19b]
2 = CCCN(CCN1CCN(c2ccccc2)CC1)C1CCc2ccc(O)cc2C1 (stereo not drawn) [Compound 15a]
3 = O=C(NCCN(CCCCN1CCN(c2ccccc2)CC1)C1CCc2ccc(O)cc2C1)c1ccccc1 (stereo not drawn) [Compound 10b]
4 = N#CCCCN(CCCCN1CCN(c2ccccc2)CC1)C1CCc2ccc(O)cc2C1 (stereo not drawn)
stdin: Ascending sort, EC50. Would you mind listing the labels in the order asked for?
stdout: 2, 1, 4, 3
(2: 0.97 nM, 1: 3.08 nM, 4: 68.1 nM, 3: 104 nM)

* * *

Biological target: D3 receptor (Homo sapiens, UniProt P35462)
Sequence (P35462 whole entry): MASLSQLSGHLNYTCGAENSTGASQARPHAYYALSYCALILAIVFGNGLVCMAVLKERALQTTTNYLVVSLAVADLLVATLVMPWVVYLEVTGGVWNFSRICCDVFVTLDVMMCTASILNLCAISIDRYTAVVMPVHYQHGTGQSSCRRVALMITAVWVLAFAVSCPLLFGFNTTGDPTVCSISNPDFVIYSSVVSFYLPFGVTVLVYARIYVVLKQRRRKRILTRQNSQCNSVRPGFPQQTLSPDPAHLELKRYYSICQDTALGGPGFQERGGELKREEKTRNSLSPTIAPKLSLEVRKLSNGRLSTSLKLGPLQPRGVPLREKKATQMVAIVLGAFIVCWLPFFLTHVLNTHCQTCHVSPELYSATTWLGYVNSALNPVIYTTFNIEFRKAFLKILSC
Test: Binding affinity at cloned human D3 receptor, [3H]YM-09151-2 (CHOp-D3 cells)
Parameters: expressed in transfected cells; host or cells: CHOp-D3 cells
Settings: cloned human D3
Description: CHOp-cells (human receptors) are grown to confluence in a minimum essential medium (α MEM) containing 10% fetal calf serum, 0.05% pen-strep, and 600 μg/ml of G418. The cells are scraped from the 100 by 20 mm plates and centrifuged at 500. g for 5 min. […] On the day of the experiment, CHOp-D2 or CHOp-D3 cells are thawed, resuspended in 50 mM Tris, and centrifuged at 27,000·G for 12 min. […] Nonspecific binding is determined with 1 mM of chlorpromazine. […]
REPORTED METRIC: Ki (nM)

Known Ki results, listed for orientation:
• N#CCCCN(CCCCN1CCN(c2ccccc2)CC1)C1CCc2ccc(O)cc2C1 (stereo not drawn) [Compound 8] = 75.8
• CCCN(CCCCN1CCN(c2cccc(Cl)c2Cl)CC1)C1CCc2ccc(O)cc2C1 (stereo not drawn) [Compound 19a] = 2.66

a = CCCN(CCN1CCN(c2ccccc2)CC1)C1CCc2ccc(O)cc2C1 (stereo not drawn) [Compound 15a]
b = C#CCN(CCCCN1CCN(c2cccc(Cl)c2Cl)CC1)C1CCc2ccc(O)cc2C1 (stereo not drawn) [Compound 19b]
c = O=C(NCCCCN(CCCCN1CCN(c2ccccc2)CC1)C1CCc2ccc(O)cc2C1)c1ccccc1 (stereo not drawn) [Compound 10a]
d = O=C(NCCN(CCCCN1CCN(c2ccccc2)CC1)C1CCc2ccc(O)cc2C1)c1ccccc1 (stereo not drawn) [Compound 10b]
stdin: Sort entries by Ki from minimum to maximum value. Give your ranking as a list of the labels in the requested order.
stdout: a, b, d, c
